- TGT: CaM-activated PDE1 (Ca2+-CaM-phosphodiesterase 1)
- Construct: bovine brain PDE (Sigma-Aldrich P9529); with calmodulin (CaM)
- TEST METHOD NOTES: PDE-Glo luminescence assay of CaM-activated PDE; supported by fluorescence quenching of the CaM-Ca2+-PDE system
- Assay type: biochemical, Bos taurus
EXPERIMENTAL READOUT: IC50
Kindly report the value followed by its unit.

stdin: Which IC50 reading was recorded for the compound CCOP(=O)(OCC)Oc1ccc2c(=O)cc(-c3ccccc3)oc2c1 [FP, diethyl flavon-7-yl phosphate] ?
stdout: 22.3 µM

Entry source: paper PMC3344907
